Recorded values, source patent US20220204630A1.

- MEASURED_ON: TrkA protein on HEK-293T-TrkA cells or NIH-3T3-TrkA cells (human, UniProt P04629 33-796)
- Sequence (P04629 33-796): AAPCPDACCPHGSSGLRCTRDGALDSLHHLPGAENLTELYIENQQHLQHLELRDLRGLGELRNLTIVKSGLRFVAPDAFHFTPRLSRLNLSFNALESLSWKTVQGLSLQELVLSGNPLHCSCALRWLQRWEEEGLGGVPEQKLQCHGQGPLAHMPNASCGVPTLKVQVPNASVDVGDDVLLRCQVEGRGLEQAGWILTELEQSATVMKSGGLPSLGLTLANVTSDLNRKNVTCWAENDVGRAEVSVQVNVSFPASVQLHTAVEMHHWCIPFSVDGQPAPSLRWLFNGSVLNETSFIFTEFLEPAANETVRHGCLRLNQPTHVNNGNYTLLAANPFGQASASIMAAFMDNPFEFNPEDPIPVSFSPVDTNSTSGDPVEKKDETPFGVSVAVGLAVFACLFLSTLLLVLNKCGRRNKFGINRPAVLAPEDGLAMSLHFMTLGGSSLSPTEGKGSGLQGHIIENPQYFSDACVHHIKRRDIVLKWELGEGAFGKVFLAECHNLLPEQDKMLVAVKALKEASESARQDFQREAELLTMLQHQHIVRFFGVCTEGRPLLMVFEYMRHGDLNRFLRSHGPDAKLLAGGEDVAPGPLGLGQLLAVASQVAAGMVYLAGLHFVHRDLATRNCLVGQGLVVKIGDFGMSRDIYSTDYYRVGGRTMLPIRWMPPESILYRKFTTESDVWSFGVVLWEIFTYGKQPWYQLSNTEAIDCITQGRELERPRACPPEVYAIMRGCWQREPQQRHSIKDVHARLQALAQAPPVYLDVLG
- TEST_NAME: cell-based or functional assay
REPORTED_METRIC: IC50; p-TrkA level by AlphaLISA in NGF-stimulated NIH3T3-TrkA stable cell line (µg/mL)
Quick note: give the figure in µg/mL, leave out the unit.

What value of IC50; p-TrkA level by AlphaLISA in NGF-stimulated NIH3T3-TrkA stable cell line has been reported for the following binder? 27H3 chimeric antibody (antibody, human IgG4 S228P, kappa, F234A L235A, V domains shown, expressed in CHO cells) VH: QVQLQQSGAELMKPGASVKISCKTTGYRFSSYWIEWVKQRPGHGLEWLGEILPGRGIINYNENFRGKATFTADTSSNTAYVQLSSLTSEDSAVYFCARTDPPYFGVWGAGTTVTVSS VL: QAVVTQESALTTSPGETVTLTCRSSTGAVTISNYANWVQEKPDHLFTGLIGGTNNRPPGVPARFSGSLIGDKAALTITGAQTEDEAIYFCVLWYSNHWVFGGGTKLTVLR
0.0437
